Entries and their Plasma concentration
System name: CYP3A4 (Homo sapiens, UniProt P08684)
Construct: purchased BD Gentest (Woburn, MA, USA); host or cells: baculovirus expression system
Sequence (P08684 whole entry): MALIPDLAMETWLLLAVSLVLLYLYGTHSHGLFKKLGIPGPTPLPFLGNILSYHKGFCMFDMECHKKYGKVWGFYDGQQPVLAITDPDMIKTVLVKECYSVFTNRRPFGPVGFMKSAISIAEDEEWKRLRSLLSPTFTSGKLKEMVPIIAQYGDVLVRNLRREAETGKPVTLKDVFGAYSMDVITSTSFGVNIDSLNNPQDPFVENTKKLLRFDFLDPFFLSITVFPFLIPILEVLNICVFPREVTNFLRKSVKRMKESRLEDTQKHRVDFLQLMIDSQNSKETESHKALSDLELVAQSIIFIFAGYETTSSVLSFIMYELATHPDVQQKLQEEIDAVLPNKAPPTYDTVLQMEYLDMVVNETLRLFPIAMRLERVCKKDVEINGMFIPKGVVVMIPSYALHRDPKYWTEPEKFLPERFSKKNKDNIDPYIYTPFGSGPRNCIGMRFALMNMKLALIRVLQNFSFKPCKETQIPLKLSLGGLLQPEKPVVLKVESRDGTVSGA
Experiment description: Prediction of in vivo HDI from in vitro results, CYP3A4
Condition summary: Table 3, CYP3A4 section
Parameter measured: Plasma concentration (µg/mL)

molecule=CCCC/C=C\CCCCCCCCCC1=C(c2c(O)cc(O)cc2CCCCCCCCC/C=C\CCCC)C(=O)C=C(OC)C1=O quantitative_result=0.79
molecule="CCCC/C=C\\CCCCCCCCCc1cc(O)cc(O)c1 [5-[10(Z)-pentadecenyl]resorcinol]" quantitative_result=13.22
molecule=CCCC/C=C\CCCCCCCCCc1cc(O)cc(OC)c1 quantitative_result=1.52
molecule=CCCC/C=C\CCCCCCCCCc1cc(O)cc2oc3cc(OC)c(O)c(CCCCCCCCC/C=C\CCCC)c3c12 quantitative_result=0.016

---

System name: CYP2D6 (Homo sapiens, UniProt P10635)
Construct: purchased BD Gentest (Woburn, MA, USA); host or cells: baculovirus expression system
Sequence (P10635 whole entry): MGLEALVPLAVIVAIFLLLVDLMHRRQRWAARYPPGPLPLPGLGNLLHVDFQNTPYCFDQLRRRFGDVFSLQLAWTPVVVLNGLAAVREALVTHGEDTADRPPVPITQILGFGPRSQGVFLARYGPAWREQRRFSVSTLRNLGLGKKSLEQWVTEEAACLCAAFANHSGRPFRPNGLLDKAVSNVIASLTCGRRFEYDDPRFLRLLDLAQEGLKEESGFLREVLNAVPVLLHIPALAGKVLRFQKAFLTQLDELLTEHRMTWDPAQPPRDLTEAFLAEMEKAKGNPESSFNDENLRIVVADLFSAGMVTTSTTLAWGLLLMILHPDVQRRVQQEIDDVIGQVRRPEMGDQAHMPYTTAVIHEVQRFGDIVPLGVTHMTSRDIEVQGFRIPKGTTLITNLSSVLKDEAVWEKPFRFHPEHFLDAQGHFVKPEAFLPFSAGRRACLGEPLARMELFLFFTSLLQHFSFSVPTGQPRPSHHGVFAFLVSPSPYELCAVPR
Experiment description: Prediction of in vivo HDI from in vitro results, CYP2D6
Condition summary: CYP2D6; IC50 compared with estimated GIT and plasma concentrations
Parameter measured: Likelihood of causing HDI

smi=CCCC/C=C\CCCCCCCCCc1cc(O)cc(OC)c1 parameter_measured="Likelihood of causing HDI" result=unlikely
smi=CCCC/C=C\CCCCCCCCCc1cc(O)cc2oc3cc(OC)c(O)c(CCCCCCCCC/C=C\CCCC)c3c12 parameter_measured="Likelihood of causing HDI" result=unlikely
smi=CCCC/C=C\CCCCCCCCCC1=C(c2c(O)cc(O)cc2CCCCCCCCC/C=C\CCCC)C(=O)C=C(OC)C1=O parameter_measured="Likelihood of causing HDI" result=unlikely

---

System name: CYP2C9 (Homo sapiens)
Construct: purchased BD Gentest (Woburn, MA, USA); host or cells: baculovirus expression system
Sequence (P11712 whole entry): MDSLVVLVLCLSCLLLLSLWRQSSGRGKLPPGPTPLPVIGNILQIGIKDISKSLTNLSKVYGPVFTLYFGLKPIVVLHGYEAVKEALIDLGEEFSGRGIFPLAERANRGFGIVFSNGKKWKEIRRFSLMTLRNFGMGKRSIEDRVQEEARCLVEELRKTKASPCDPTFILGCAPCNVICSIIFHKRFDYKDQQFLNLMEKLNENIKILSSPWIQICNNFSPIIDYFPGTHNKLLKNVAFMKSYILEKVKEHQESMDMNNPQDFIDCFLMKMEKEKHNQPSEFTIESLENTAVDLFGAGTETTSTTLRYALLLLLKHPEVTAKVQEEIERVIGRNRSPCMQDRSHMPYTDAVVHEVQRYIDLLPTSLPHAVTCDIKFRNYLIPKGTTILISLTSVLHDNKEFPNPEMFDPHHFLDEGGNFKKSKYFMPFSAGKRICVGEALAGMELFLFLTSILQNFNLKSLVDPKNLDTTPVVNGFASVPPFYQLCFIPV
Experiment description: Reversible inhibition (co-incubation assay) of recombinant CYP2C9
Type: in vitro ADME
Each item that follows carries a reported IC50.
Parameter measured: IC50

compound="CCCC/C=C\\CCCCCCCCCc1cc(O)cc2oc3cc(OC)c(O)c(CCCCCCCCC/C=C\\CCCC)c3c12 [Fatimahol]" result="17 µM"
compound="CCCC/C=C\\CCCCCCCCCc1cc(O)cc(OC)c1 [Belamcandol B]" result="69.2 µM"
compound="CCCC/C=C\\CCCCCCCCCc1cc(O)cc(O)c1 [5-[10(Z)-pentadecenyl]resorcinol]" result="11.9 µM"

---

System name: CYP1A2 (Homo sapiens, UniProt P05177)
Construct: purchased BD Gentest (Woburn, MA, USA); host or cells: baculovirus expression system
Sequence (P05177 1-516): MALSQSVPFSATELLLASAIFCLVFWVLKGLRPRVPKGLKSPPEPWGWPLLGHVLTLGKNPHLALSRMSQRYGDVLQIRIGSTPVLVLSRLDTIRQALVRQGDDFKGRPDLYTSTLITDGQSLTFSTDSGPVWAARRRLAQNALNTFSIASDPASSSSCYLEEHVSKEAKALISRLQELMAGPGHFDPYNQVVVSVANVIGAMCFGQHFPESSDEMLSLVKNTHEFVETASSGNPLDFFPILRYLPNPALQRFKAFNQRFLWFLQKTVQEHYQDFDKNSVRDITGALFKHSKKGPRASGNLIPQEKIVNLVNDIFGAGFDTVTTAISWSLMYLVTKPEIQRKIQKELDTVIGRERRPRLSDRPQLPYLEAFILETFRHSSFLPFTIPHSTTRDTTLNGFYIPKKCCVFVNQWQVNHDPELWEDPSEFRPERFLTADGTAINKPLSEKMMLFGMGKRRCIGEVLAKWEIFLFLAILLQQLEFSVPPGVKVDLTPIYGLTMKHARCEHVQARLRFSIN
Experiment description: Prediction of in vivo HDI from in vitro results, CYP1A2
Condition summary: Table 3, CYP1A2 section
Procedure: All assumptions to predict the HDI potential of KF methanolic extract and its constituents were according to previously published report ([Awortwe et al., 2014]). The % yield was calculated from the amounts extracted from the KF roots ([Ali and Khan, 2011]). […]
// Plasma concentration lookup, one value per entry
Parameter measured: Plasma concentration (ng/mL)

molecule=CCCC/C=C\CCCCCCCCCc1cc(O)cc(OC)c1 system_name="CYP1A2 (Homo sapiens, UniProt P05177)" unit_spec=ng/mL quantitative_result=310
molecule="CCCC/C=C\\CCCCCCCCCc1cc(O)cc(O)c1 [5-[10(Z)-pentadecenyl]resorcinol]" system_name="CYP1A2 (Homo sapiens, UniProt P05177)" unit_spec=ng/mL quantitative_result=774
molecule=CCCC/C=C\CCCCCCCCCc1cc(O)cc2oc3cc(OC)c(O)c(CCCCCCCCC/C=C\CCCC)c3c12 system_name="CYP1A2 (Homo sapiens, UniProt P05177)" unit_spec=ng/mL quantitative_result=16
molecule=CCCC/C=C\CCCCCCCCCC1=C(c2c(O)cc(O)cc2CCCCCCCCC/C=C\CCCC)C(=O)C=C(OC)C1=O system_name="CYP1A2 (Homo sapiens, UniProt P05177)" unit_spec=ng/mL quantitative_result=722

Entry source: paper PMC4126480
